target: T1, recombinant C-terminally truncated RSV (A2 strain) F protein (RSV (A2 strain), UniProt P03420 26-524); assay: SPR (BIAcore), Fab over immobilised F
T1 construct: extracellular domain; also called truncated F protein; extracellular domain of the F protein from RSV A2
T1 sequence (P03420 26-109, chain 1 of 2): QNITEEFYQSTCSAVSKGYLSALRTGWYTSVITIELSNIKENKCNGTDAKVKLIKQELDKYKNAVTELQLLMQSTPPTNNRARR
T1 sequence (P03420 137-524, chain 2 of 2): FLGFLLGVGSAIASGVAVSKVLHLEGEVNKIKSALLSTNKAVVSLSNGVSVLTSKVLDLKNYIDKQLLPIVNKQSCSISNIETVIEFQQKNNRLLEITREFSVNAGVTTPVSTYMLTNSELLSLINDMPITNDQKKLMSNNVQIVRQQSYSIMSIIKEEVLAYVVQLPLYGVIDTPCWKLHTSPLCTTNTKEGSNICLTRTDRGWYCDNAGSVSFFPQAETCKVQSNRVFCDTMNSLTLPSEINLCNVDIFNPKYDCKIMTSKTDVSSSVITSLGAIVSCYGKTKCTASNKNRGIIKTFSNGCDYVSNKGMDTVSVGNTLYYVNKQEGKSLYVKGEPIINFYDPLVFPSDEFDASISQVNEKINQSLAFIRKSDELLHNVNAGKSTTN
Friendly reminder: Kd below 0.2 nM is TRUE, at or above is FALSE.

See these solved cases before continuing.
binder	class
A13c4 Fab (Fab, V domains shown) VH: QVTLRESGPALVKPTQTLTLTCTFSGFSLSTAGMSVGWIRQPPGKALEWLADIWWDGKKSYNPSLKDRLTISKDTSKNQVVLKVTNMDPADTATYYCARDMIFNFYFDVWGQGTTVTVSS VL: DIQMTQSPSTLSASVGDRVTITCSLSSRVGYMHWYQQKPGKAPKLLIYDTMYQSSGVPSRFSGSGSGTEFTLTISSLQPDDFATYYCFQGSGYPFTFGGGTKVEIK	TRUE
A17f5 Fab (Fab, V domains shown) VH: QVTLRESGPALVKPTQTLTLTCTFSGFSLSTAGMSVGWIRQPPGKALEWLADIWWDDKKDYNPSLKDRLTISKDTSKNQVVLKVTNMDPADTATYYCARDMIFNWYFDVWGQGTTVTVSS VL: DIQMTQSPSTLSASVGDRVTITCSLSSRVGYMHWYQQKPGKAPKLLIYDTFRHTSGVPSRFSGSGSGTEFTLTISSLQPDDFATYYCFQGSGYPFTFGGGTKVEIK	TRUE

Qu. Confirm or reject: Kd of A14a4 Fab (Fab, V domains shown) VH: QVTLRESGPALVKPTQTLTLTCTFSGFSLSTAGMSVGWIRQPPGKALEWLADIWWDDKKSYNPSLKDRLTISKDTSKNQVVLKVTNMDPADTATYYCARDMITNWYFDVWGQGTTVTVSS VL: DIQMTQSPSTLSASVGDRVTITCLLSSRVGYMHWYQQKPGKAPKLLIYDTYYQTSGVPSRFSGSGSGTEFTLTISSLQPDDFATYYCFQGSGYPFTFGGGTKVEIK lies strictly below 0.2 nM
Ans. FALSE

Qu. Confirm or reject: Kd of A12a6 Fab (Fab, V domains shown) VH: QVTLRESGPALVKPTQTLTLTCTFSGFSLSTAGMSVGWIRQPPGKALEWLADIWWDGKKDYNPSLKDRLTISKDTSKNQVVLKVTNMDPADTATYYCARDMIFNFYFDVWGQGTTVTVSS VL: DIQMTQSPSTLSASVGDRVTITCSASSRVGYMHWYQQKPGKAPKLLIYDTFKLSSGVPSRFSGSGSGTEFTLTISSLQPDDFATYYCFQGSGYPFTFGGGTKVEIK lies strictly below 0.2 nM
Ans. FALSE

Qu. Confirm or reject: Kd of A8c7 Fab (Fab, V domains shown) VH: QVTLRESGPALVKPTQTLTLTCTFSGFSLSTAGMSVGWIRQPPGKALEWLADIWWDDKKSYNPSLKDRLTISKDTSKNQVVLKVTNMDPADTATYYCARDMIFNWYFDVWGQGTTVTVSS VL: DIQMTQSPSTLSASVGDRVTITCSPSSRVGYMHWYQQKPGKAPKLLIYDTRYQSSGVPSRFSGSGSGTEFTLTISSLQPDDFATYYCFQGSGYPFTFGGGTKVEIK lies strictly below 0.2 nM
Ans. FALSE

Qu. Confirm or reject: Kd of A1e9 Fab (Fab, V domains shown, also called Ale9) VH: QVTLRESGPALVKPTQTLTLTCTFSGFSLSTAGMSVGWIRQPPGKALEWLADIWWDGKKHYNPSLKDRLTISKDTSKNQVVLKVTNMDPADTATYYCARDMIFNWYFDVWGQGTTVTVSS VL: DIQMTQSPSTLSASVGDRVTITCSLSSRVGYMHWYQQKPGKAPKLLIYDTFKLSSGVPSRFSGSGSGTEFTLTISSLQPDDFATYYCFQGSGYPFTFGGGTKVEIK lies strictly below 0.2 nM
Ans. FALSE

Qu. Confirm or reject: Kd of A17d4(1) Fab (Fab, V domains shown) VH: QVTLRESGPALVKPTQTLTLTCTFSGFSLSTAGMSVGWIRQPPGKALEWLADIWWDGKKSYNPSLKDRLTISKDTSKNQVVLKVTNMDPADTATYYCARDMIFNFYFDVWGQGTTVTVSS VL: DIQMTQSPSTLSASVGDRVTITCLPSSRVGYMHWYQQKPGKAPKLLIYDTMYQSSGVPSRFSGSGSGTEFTLTISSLQPDDFATYYCFQGSGYPFTFGGGTKVEIK lies strictly below 0.2 nM
Ans. TRUE

Qu. Confirm or reject: Kd of A16b4 Fab (Fab, V domains shown) VH: QVTLRESGPALVKPTQTLTLTCTFSGFSLSTAGMSVGWIRQPPGKALEWLADIWWDDKKHYNPSLKDRLTISKDTSKNQVVLKVTNMDPADTATYYCARDMIFNWYFDVWGQGTTVTVSS VL: DIQMTQSPSTLSASVGDRVTITCLLSSRVGYMHWYQQKPGKAPKLLIYDTMYQASGVPSRFSGSGSGTEFTLTISSLQPDDFATYYCFQGSGYPFTFGGGTKVEIK lies strictly below 0.2 nM
Ans. FALSE

Qu. Confirm or reject: Kd of A4b4 Fab (Fab, V domains shown) VH: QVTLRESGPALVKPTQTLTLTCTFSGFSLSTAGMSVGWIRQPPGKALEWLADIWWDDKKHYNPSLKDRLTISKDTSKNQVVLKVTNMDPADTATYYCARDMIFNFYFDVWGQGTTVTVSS VL: DIQMTQSPSTLSASVGDRVTITCSASSRVGYMHWYQQKPGKAPKLLIYDTFFLDSGVPSRFSGSGSGTEFTLTISSLQPDDFATYYCFQGSGYPFTFGGGTKVEIK lies strictly below 0.2 nM
Ans. TRUE
